# assayTarget: T1, Activin A (UniProt P08476 311-426)
# T1 sequence (looked up): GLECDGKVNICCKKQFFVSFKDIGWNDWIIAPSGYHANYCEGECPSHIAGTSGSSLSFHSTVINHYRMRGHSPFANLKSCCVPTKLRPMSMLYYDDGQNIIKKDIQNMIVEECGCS
# measurementNotes: cell-based or functional assay
reportedProperty: IC50, inhibition of ligand signalling, A-204 reporter gene assay (conditioned media) (µg/mL)

binder	testResult
ActRIIB(20-134)-hFc (Fc fusion, not shown: a dimerising Fc or GST) GRGEAETRECIYYNANWELERTNQSGLERCEGEQDKRLHCYASWRNSSGTIELVKKGCWLDDFNCYDRQECVATEENPQVYFCCCEGNFCNERFTHLPEAGGPEVTYEPPPTAPT	0.022
ActRIIB(22-131)-hFc (Fc fusion, not shown: a dimerising Fc or GST) GEAETRECIYYNANWELERTNQSGLERCEGEQDKRLHCYASWRNSSGTIELVKKGCWLDDFNCYDRQECVATEENPQVYFCCCEGNFCNERFTHLPEAGGPEVTYEPPPT	0.1
ActRIIB(21-131)-hFc (Fc fusion, not shown: a dimerising Fc or GST) RGEAETRECIYYNANWELERTNQSGLERCEGEQDKRLHCYASWRNSSGTIELVKKGCWLDDFNCYDRQECVATEENPQVYFCCCEGNFCNERFTHLPEAGGPEVTYEPPPT	0.325

I = ActRIIB(23-131)-hFc (Fc fusion, not shown: a dimerising Fc or GST) EAETRECIYYNANWELERTNQSGLERCEGEQDKRLHCYASWRNSSGTIELVKKGCWLDDFNCYDRQECVATEENPQVYFCCCEGNFCNERFTHLPEAGGPEVTYEPPPT
II = ActRIIB(24-131)-hFc (Fc fusion, not shown: a dimerising Fc or GST) AETRECIYYNANWELERTNQSGLERCEGEQDKRLHCYASWRNSSGTIELVKKGCWLDDFNCYDRQECVATEENPQVYFCCCEGNFCNERFTHLPEAGGPEVTYEPPPT
Q: Larger number for IC50, inhibition of ligand signalling, A-204 reporter gene assay (conditioned media): I , or II ? Write down the label attached to your selection.
Ans: II
(II: 0.105 µg/mL, I: 0.043 µg/mL)

I = ActRIIB(20-132)-hFc (Fc fusion, not shown: a dimerising Fc or GST) GRGEAETRECIYYNANWELERTNQSGLERCEGEQDKRLHCYASWRNSSGTIELVKKGCWLDDFNCYDRQECVATEENPQVYFCCCEGNFCNERFTHLPEAGGPEVTYEPPPTA
II = ActRIIB(20-128)-hFc (Fc fusion, not shown: a dimerising Fc or GST) GRGEAETRECIYYNANWELERTNQSGLERCEGEQDKRLHCYASWRNSSGTIELVKKGCWLDDFNCYDRQECVATEENPQVYFCCCEGNFCNERFTHLPEAGGPEVTYEP
Q: Sort I and II by IC50, inhibition of ligand signalling, A-204 reporter gene assay (conditioned media) descending and give the first. Let me know the label of the one you choose.
Ans: II
(II: 0.158 µg/mL, I: 0.032 µg/mL)
